Where do these numbers come from? They come from patent US20100216823A1.

- target-desc: PDE7A (Homo sapiens, UniProt Q13946)
- Construct: cell lysate containing full length PDE7A, PDE7B and PDE1C enzyme
- Sequence (Q13946 whole entry): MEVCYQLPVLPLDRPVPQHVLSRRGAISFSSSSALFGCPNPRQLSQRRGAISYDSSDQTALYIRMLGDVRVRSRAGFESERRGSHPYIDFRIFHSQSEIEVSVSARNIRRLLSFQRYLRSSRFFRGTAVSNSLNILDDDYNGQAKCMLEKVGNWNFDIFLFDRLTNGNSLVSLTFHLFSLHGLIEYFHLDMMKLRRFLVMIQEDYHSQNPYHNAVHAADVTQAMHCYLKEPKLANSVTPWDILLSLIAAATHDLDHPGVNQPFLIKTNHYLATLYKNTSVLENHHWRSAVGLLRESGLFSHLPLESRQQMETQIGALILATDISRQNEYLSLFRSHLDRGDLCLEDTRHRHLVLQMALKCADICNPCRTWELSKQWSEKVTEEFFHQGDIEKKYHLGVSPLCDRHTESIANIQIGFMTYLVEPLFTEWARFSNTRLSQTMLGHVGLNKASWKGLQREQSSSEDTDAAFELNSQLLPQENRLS
- procedure-summary: PDE7A [3H]-cAMP scintillation proximity assay (SPA) enzyme inhibition
- experimental-context: full length PDE7A in cell lysate; ~25 nM cAMP; Ki from IC50 by Cheng-Prussof equation
- From the text: The ability of the compounds of formula (I) to inhibit PDE7 and PDE1 may be measured using the following assay protocol. PDE7A, PDE7B and PDE1C enzymes catalyse the hydrolysis of 3′,5′-cyclic adenosine monophosphate (cAMP) to the 5′ adenosine monophosphate, 5′AMP. […] The yttrium silicate beads preferentially bind linear nucleotides, thus the product of the enzyme reaction, [^3H]-5′AMP binds to the bead to produce a light signal, which is detected by a scintillation counter. […]
Measured pKi values are reported for all entries that follow.
Convention used: pKi is expressed as -log10 of the molar concentration.

Task: If you can, please state the reported pKi value of O=C1Nc2c(Cl)ccc(OCc3ccc(C(=O)O)o3)c2C2(CCCCC2)N1 [Compound C, reference compound] .
Result: 8.17

Task: If you can, please state the reported pKi value of "O=C1Nc2c(Cl)ccc(Oc3ccc(F)cc3-c3nnn[nH]3)c2C2(CCCC2)N1" .
Result: 8.77

Task: If you can, please state the reported pKi value of "O=C(O)COc1cccc(-c2ccc(Cl)c3c2C2(CCCCC2)NC(=O)N3)c1" .
Result: 8.35

Task: If you can, please state the reported pKi value of "O=C1Nc2c(Cl)ccc(Oc3ccccc3-c3nn[nH]n3)c2C2(CCCC2)N1" .
Result: 8.64

Task: If you can, please state the reported pKi value of "O=C(O)COc1ccc(Oc2ccc(Cl)c3c2C2(CCCCC2)NC(=O)N3)cc1" .
Result: 9.01
